- Target of assay: human V1a receptor (Homo sapiens, UniProt P37288)
- Sequence (P37288 whole entry): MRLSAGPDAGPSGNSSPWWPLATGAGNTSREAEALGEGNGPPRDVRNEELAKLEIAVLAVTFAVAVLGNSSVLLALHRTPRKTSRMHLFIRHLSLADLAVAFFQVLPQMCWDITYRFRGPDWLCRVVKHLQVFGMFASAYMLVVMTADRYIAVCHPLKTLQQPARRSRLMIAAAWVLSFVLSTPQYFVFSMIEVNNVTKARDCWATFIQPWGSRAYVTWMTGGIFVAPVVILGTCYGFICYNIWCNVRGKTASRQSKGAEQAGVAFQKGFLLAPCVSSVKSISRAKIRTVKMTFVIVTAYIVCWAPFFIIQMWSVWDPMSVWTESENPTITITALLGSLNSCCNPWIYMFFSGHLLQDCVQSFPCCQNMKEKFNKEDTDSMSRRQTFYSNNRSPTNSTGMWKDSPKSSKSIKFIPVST
- Experimental protocol: Calcium flux assay (FLIPR) in CHO cells expressing human V1a
- Experimental context: agonist mode, CHO cells, calcium flux FLIPR; read-out: hV1a EC50
*1 amine or outer side, *2 acyl side, *3 side chain or, on linkers, in order; H or OH if unused. Where a SMILES comes first, the peptide text is derived from it. Bridges are numbered along the chain shown (N, C = ends). [ ]: non-standard residue; d: D form. Hcy(O2-CH2CH2CO) = O=C([C@H](CCS(=O)(=O)CCC(=O)[*:3])N[*:1])[*:2]; Chg = N[C@H](C(=O)O)C1CCCCC1; NcPrGly = O=C(O)CNC1CC1
Quantity name: EC50

| Compound | Result |
| --- | --- |
| CC[C@H](C)[C@@H]1NC(=O)[C@H](Cc2ccc(O)cc2)NC(=O)CCS(=O)(=O)CC[C@@H](C(=O)N(C)CC(=O)N[C@@H](CC(C)C)C(=O)NCC(N)=O)NC(=O)[C@H](CC(N)=O)NC(=O)[C@H](CCC(N)=O)NC1=O [Example 2] (HELM PEPTIDE1{Y.I.Q.N.[O=C([C@H](CCS(=O)(=O)CCC(=O)[*:3])N[*:1])[*:2]].[Sar].L.G.[am]}$PEPTIDE1,PEPTIDE1,1:R1-5:R3$$$V2.0) | > 27 µM |
| CC[C@H](C)[C@@H]1NC(=O)[C@H](Cc2ccc(O)cc2)NC(=O)CCS(=O)(=O)CC[C@@H](C(=O)N(CC(=O)N[C@H](C(=O)NCC(N)=O)C2CCCCC2)C2CC2)NC(=O)[C@H](CC(N)=O)NC(=O)[C@H](CCC(N)=O)NC1=O [Example 32] (YIQN[Hcy(O2-CH2CH2CO)][NcPrGly][Chg]G-NH2; lactam N-5) | 2.23 µM |

We next turn to a different compound, shown below.
What measured EC50 goes with CC[C@H](C)[C@@H]1NC(=O)[C@H](Cc2ccc(O)cc2)NC(=O)CCS(=O)(=O)CC[C@@H](C(=O)N(CC(=O)N[C@@H](CC(C)C)C(=O)NCC(N)=O)C2CC2)NC(=O)[C@H](CC(N)=O)NC(=O)[C@H](CCC(N)=O)NC1=O [Example 27] (HELM PEPTIDE1{Y.I.Q.N.[O=C([C@H](CCS(=O)(=O)CCC(=O)[*:3])N[*:1])[*:2]].[O=C(CN(C1CC1)[*:1])[*:2]].L.G.[am]}$PEPTIDE1,PEPTIDE1,1:R1-5:R3$$$V2.0) ? > 27 µM
